So I've got a bunch of compounds here, and I need their solubility at 24 h values.
# Test Description: ADME solubility determination in PBS at pH 2.0 and pH 7.4
# Format: physicochemical
# Condition: phosphate buffered saline, 25 °C, pH 2, aqueous buffer, thermodynamic from solid, PBS pH 2.0, 25° C., read-out: Solubility at pH 2.0

Data request: Please report the recorded solubility at 24 h for CCn1cc(C(F)(F)F)nc1-c1ccc(NC2CCCn3nc(-c4c(Cl)cnn4C(C)C)cc32)cc1OC (stereo not drawn) [Example 246] .
Data returned: ≥ 10 µM

Data request: Consider the compound shown here: CCn1cc(C(F)(F)F)nc1-c1ccc(O[C@@H]2CCCn3nc(-c4c(OC)ncnc4C4CC4)cc32)cc1F (single isomer, unassigned) [Example 264] What is its recorded solubility at 24 h?
Data returned: ≥ 10 µM

Data request: Which solubility at 24 h is listed for CCn1cc(C(F)(F)F)nc1-c1ccc(N[C@@H]2CCCn3nc(-c4c(Cl)cnn4C(C)C)cc32)cc1 (single isomer, unassigned) [Example 238] ?
Data returned: < 10 µM
